# credit: patent US5914339A

Target: human β2 adrenergic receptor (Homo sapiens, UniProt P07550)
Sequence (P07550 whole entry): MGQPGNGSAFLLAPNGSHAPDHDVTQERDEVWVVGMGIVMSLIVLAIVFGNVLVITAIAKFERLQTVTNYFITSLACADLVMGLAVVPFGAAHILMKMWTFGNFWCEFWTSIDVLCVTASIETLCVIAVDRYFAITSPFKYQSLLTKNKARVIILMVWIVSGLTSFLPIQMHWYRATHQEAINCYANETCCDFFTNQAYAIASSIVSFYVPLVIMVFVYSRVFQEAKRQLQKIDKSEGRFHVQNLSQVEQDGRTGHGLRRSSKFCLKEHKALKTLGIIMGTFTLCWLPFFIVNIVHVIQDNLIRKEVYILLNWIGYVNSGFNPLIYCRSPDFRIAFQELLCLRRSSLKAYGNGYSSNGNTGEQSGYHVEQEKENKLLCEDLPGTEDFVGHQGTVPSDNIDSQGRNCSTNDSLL
Test: cell-based
Conditions: 10 min; compounds tested at 10 nM, isoproterenol at 10 μM; CHO cells, 10 min at 37° C; read-out: β2: % of isoproterenol activity (increase in cAMP)
Description: The activity of the test compounds on human β-adrenergic receptors was determined with Chinese hamster ovary (CHO) cells transfected with human β2, or β1 adrenergic receptors. Agonist activity is indicated by increased cAMP levels in the CHO cells. Selectivity of the test compounds for the β3 receptor was assessed by comparison with results in β2 and β1 adrenergic receptor transfected cells. 1). […] 6). Activities for the test compounds are expressed as a percentage of the isoproterenol response. […]
Assay metric: activation at 0.01 µM (%)

Would you please look over these solved cases?
- Compound: "CCOC(=O)COC(=O)C1(C(=O)OCC(=O)OCC)Oc2ccc(CC(C)NCC(O)c3cccc(Cl)c3)cc2O1 (stereo not drawn)"
  Tested system: "human β2 adrenergic receptor (Homo sapiens, UniProt P07550)"
  activation at 0.01 µM / %: 2
- Compound: "C[C@H](Cc1ccc2c(c1)OC(C(=O)O)(C(=O)OCC13CC4CC(CC(C4)C1)C3)O2)NC[C@H](O)c1cccc(Cl)c1 (stereo partly drawn)"
  Tested system: "human β2 adrenergic receptor (Homo sapiens, UniProt P07550)"
  activation at 0.01 µM / %: 0
- Compound: "CCC(CC)COC(=O)C1(C(=O)OCC(CC)CC)Oc2ccc(C[C@@H](C)NC[C@H](O)c3cccc(Cl)c3)cc2O1"
  Tested system: "human β2 adrenergic receptor (Homo sapiens, UniProt P07550)"
  activation at 0.01 µM / %: 0
- Compound: "CC(Cc1ccc2c(c1)OC(C(=O)OC(C)OC(=O)CC(C)(C)C)(C(=O)OC(C)OC(=O)CC(C)(C)C)O2)NCC(O)c1cccc(Cl)c1 (stereo not drawn)"
  Tested system: "human β2 adrenergic receptor (Homo sapiens, UniProt P07550)"
  activation at 0.01 µM / %: 7

I: CC(Cc1ccc2c(c1)OC(C(=O)O)(C(=O)OCCOC(C)(C)C)O2)NCC(O)c1cccc(Cl)c1 (stereo not drawn)
II: CC(Cc1ccc2c(c1)OC(C(=O)OCCc1ccsc1)(C(=O)OCCc1ccsc1)O2)NCC(O)c1cccc(Cl)c1 (stereo not drawn)
III: CC(Cc1ccc2c(c1)OC(C(=O)OCCCl)(C(=O)OCCCl)O2)NCC(O)c1cccc(Cl)c1 (stereo not drawn)
IV: CC(Cc1ccc2c(c1)OC(C(=O)O)(C(=O)O)O2)N1COC(c2cccc(Cl)c2)C1 (stereo not drawn)
**Query** Arrange by activation at 0.01 µM, high to low. Your task in answering is to list the labels in the requested order.
**Result** II, IV, I, III
(II: 14%, IV: 3%, I: 2%, III: 0%)

1: C[C@H](Cc1ccc2c(c1)OC(C(=O)OC1CCCCCCC1)(C(=O)OC1CCCCCCC1)O2)NC[C@H](O)c1cccc(Cl)c1
2: C[C@H](Cc1ccc2c(c1)OC(C(=O)OCC13CC4CC(CC(C4)C1)C3)(C(=O)OCC13CC4CC(CC(C4)C1)C3)O2)NC[C@H](O)c1cccc(Cl)c1 (stereo partly drawn)
3: CC(Cc1ccc2c(c1)OC(C(=O)OCOC(=O)c1ccccc1)(C(=O)OCOC(=O)c1ccccc1)O2)NCC(O)c1cccc(Cl)c1 (stereo not drawn)
**Query** Let's sort these by activation at 0.01 µM, smallest first. Go ahead? Your task in answering is to list the labels in the requested order.
**Result** 1, 2, 3
(1: 2%, 2: 5%, 3: 8%)

A: CCCOC(=O)COC(=O)C1(C(=O)OCC(=O)OCCC)Oc2ccc(CC(C)NCC(O)c3cccc(Cl)c3)cc2O1 (stereo not drawn)
B: CC(OC(=O)OC1CCCCC1)OC(=O)C1(C(=O)OC(C)OC(=O)OC2CCCCC2)Oc2ccc(C[C@@H](C)NC[C@H](O)c3cccc(Cl)c3)cc2O1 (stereo partly drawn)
**Query** Lab note: record which item had the higher activation at 0.01 µM, A or B . Please reply using the label of the selected record.
**Result** B
(B: 10%, A: 6%)

a: CC(Cc1ccc2c(c1)OC(C(=O)OCC(=O)OC(C)C)(C(=O)OCC(=O)OC(C)C)O2)NCC(O)c1cccc(Cl)c1 (stereo not drawn)
b: CC(Cc1ccc2c(c1)OC(C(=O)OCOC(=O)CCC1CCCC1)(C(=O)OCOC(=O)CCC1CCCC1)O2)NCC(O)c1cccc(Cl)c1 (stereo not drawn)
**Query** Lab note: record which item had the higher activation at 0.01 µM, a or b . Please reply using the label of the selected record.
**Result** a

P: C[C@H](Cc1ccc2c(c1)OC(C(=O)OCC1CCCCO1)(C(=O)OCC1CCCCO1)O2)NC[C@H](O)c1cccc(Cl)c1 (stereo partly drawn)
Q: CC(C)CCC(=O)OCOC(=O)C1(C(=O)OCOC(=O)CCC(C)C)Oc2ccc(CC(C)NCC(O)c3cccc(Cl)c3)cc2O1 (stereo not drawn)
**Query** Lab note: record which item had the higher activation at 0.01 µM, P or Q . Please reply using the label of the selected record.
**Result** P
(P: 7%, Q: 0%)
